# Procedure details: Stability of the compound in PBS buffer measured up to 24 hrs by HPLC analysis
# Type: physicochemical
# Measurement conditions: read-out: Stability
Measured attribute: remaining at 24 h

Which remaining at 24 h is listed for Cc1ncsc1-c1ccc(CNC(=O)[C@@H]2C[C@@H](OC(=O)CCOCCOCCOCCC(=O)NCCCC[C@H](NC(=O)N[C@@H](CCC(=O)O)C(=O)O)C(=O)O)CN2C(=O)[C@@H](NC(=O)CCCCCCCCCNC(=O)c2ccc(C(=O)N[C@H]3C(C)(C)[C@H](Oc4ccc(C#N)c(Cl)c4)C3(C)C)cc2)C(C)(C)C)cc1 ? > 90%
